Assay: SGF digest of the 168 nutritive polypeptide library, intact protein by LC-MS/MS spectral counts
Assay type: in vitro ADME
Details: proteins detected in the 168 nutritive polypeptide library
Procedure: Nutritive polypeptide intact half-life determination in a complex mixture. The in vitro intact half-life of multiple polypeptides in a complex mixture was determined using the simulated gastric in vitro digestion described above. […] The 168 Protein Library was treated with SGF as described above and the t=0 and t=10 min samples were analyzed for intact protein by LC-MS/MS. […] The samples were then analyzed by nano LC/MS/MS using an EasynLC 1000 HPLC system interfaced to a ThermoFisher Q Exactive. […]
Reported endpoint: % Remaining at 10 min (%)
Just the number please, in %, no unit attached.

Worked cases, % Remaining at 10 min given:
[[record]]
molecule = "SEQID-00502: protein of the 168 nutritive polypeptide library (protein, Glycine max, protein of the 168 nutritive polypeptide library) MASQSNTKSVHDFTVKDARGNNVNLADYKGKVLLIVNVASQCGLTNSNYTELNQLYEKYKGKGLEILAFPCNQFGAQEPGTNEEIVEFACTRFKAEFPIFDKVDVNGDNAAPLYKFLKSSKGGLFGDSIKWNFSKFLVDKDGNVVDRYAPTTSPLSIEKDIKKLLDA"
reported_endpoint = "% Remaining at 10 min"
numeric_readout = 9.7

[[record]]
molecule = "SEQID-00606: protein of the 168 nutritive polypeptide library (protein, Glycine max, protein of the 168 nutritive polypeptide library) MASEGDHHHHHHHHQDHDHHHHDHDHHHHHDGEGETNSWVGKDGKVYHSHDGLAPHSHEPIYSPGYFTRRAPPLLNRNFNERAFTVGIGGPVGTGKTALMLALCELLRENYSLAAVTNDIFTKEDGEFLVKHKALPEERIRAVETGGCPHAAIREDISINLGPLEELSNLFKADILLCESGGDNLAANFSRELADYIIYIIDVSGGDKIPRKGGPGITQADLLVINKTDLAPAIGADLAVMQRDALRMRDGGPFVFAQVKHKIGVEEIGNLVLQAWEAATGNKRH"
reported_endpoint = "% Remaining at 10 min"
numeric_readout = 0

[[record]]
molecule = "SEQID-00511: protein of the 168 nutritive polypeptide library (protein, Arthrospira platensis C1, protein of the 168 nutritive polypeptide library) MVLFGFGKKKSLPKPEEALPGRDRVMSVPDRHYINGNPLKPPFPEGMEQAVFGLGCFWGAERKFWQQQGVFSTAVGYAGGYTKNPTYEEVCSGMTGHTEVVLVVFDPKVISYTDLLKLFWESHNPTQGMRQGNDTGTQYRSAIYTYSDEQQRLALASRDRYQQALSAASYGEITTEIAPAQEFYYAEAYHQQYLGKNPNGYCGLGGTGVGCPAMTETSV"
reported_endpoint = "% Remaining at 10 min"
numeric_readout = 4.3


Data request: Need % Remaining at 10 min of SEQID-00647: protein of the 168 nutritive polypeptide library (protein, Arthrospira platensis C1, protein of the 168 nutritive polypeptide library) MALSKIEEARQLNDDDLSEQILEIKKQLANLRLLKATGRLEKPHEIRHTRHRLSQLLTVERERQLPNQSPA , thanks.
Data returned: 12
